- Organism: Rattus norvegicus
- ASSAY PROCEDURE: Inhibition of rat recombinant Rab geranylgeranyltransferase at 100 uM in presence of canine Rab7 and rat REP1 NBD-FPP based continuous fluorimetric assay
Square brackets hold non-standard residues; d marks the D form. Peptide text beside a SMILES is read from it. * marks the point of attachment. NMeY = CN[C@@H](Cc1ccc(O)cc1)C(=O)O; NMeF = CN[C@@H](Cc1ccccc1)C(=O)O; pGlu = O=C1CC[C@@H](C(=O)O)N1; Ac6c = NC1(C(=O)O)CCCCC1; Cbz = O=C(OCc1ccccc1)*
VALUE KIND: inhibition (%)
Numbers only here, please. The scale is %.

1. O=C(/C=C/c1ccccc1)N[C@@H](Cc1ccccc1)C(=O)N[C@@H](Cc1ccccc1)C(=O)N[C@@H](Cc1ccc(O)cc1)C(=O)NC1CCCCC1 :: 71
2. CC(C)C[C@H](NC(=O)[C@@H]1CCC(=O)N1)C(=O)N[C@@H](CCCCN)C(=O)NC1(C(N)=O)CCCCC1 ([pGlu]LK[Ac6c]-NH2) :: 95

Annotate the compound CN(C(=O)[C@H](Cc1cnc[nH]1)NC(=O)OCc1ccccc1)[C@@H](Cc1ccc(O)cc1)C(=O)N(C)[C@@H](Cc1ccccc1)C(=O)O (Cbz-His-[NMeY]-[NMeF]-OH) with its measured inhibition.
54

###

- Organism: Rattus norvegicus
- ASSAY PROCEDURE: Inhibition of rat recombinant Rab geranylgeranyltransferase at 100 uM in presence of canine Rab7 and rat REP1 NBD-FPP based continuous fluorimetric assay
Peptide text beside a SMILES is read from it. * marks the point of attachment. Undecanoyl = CCCCCCCCCCC(=O)*
VALUE KIND: inhibition

1) O=C(/C=C/c1ccc(F)cc1)N[C@@H](CO)C(=O)N[C@@H](Cc1ccccc1)C(=O)N[C@@H](CO)C(=O)OCCCl :: 84%
2) CCCCCCCCCCC(=O)N[C@@H](Cc1ccc(O)cc1)C(=O)N[C@@H](Cc1c[nH]cn1)C(=O)N[C@@H](Cc1c[nH]cn1)C(N)=O (Undecanoyl-Tyr-His-His-NH2) :: 79%
3) C[C@H](NC(=O)[C@@H](NC(=O)c1ccc(-c2ccccc2)cc1)[C@@H](C)O)C(=O)N[C@@H](CCC(N)=O)C(=O)NNc1ccccc1 :: 96%
4) CC[C@H](C)[C@H](NC(=O)c1ccc(-c2ccccc2)cc1)C(=O)N[C@@H](C(=O)N[C@@H](CCC(N)=O)C(=O)N(C)OC)C(C)C :: 109%
5) CCCCCCCCCCCOc1ccc(C(=O)N[C@@H](Cc2c[nH]cn2)C(=O)N[C@@H](Cc2ccc(O)cc2)C(=O)N[C@@H](Cc2ccccc2)C(=O)N2CCOCC2)cc1 :: 87%

Annotate the molecule O=C(N[C@@H](CO)C(=O)N[C@@H](Cc1ccccc1)C(=O)N[C@@H](CO)C(=O)O)C(Br)C(Br)c1ccc(F)cc1 (stereo partly specified) with its measured inhibition.
92%

###

# inhibition per record follows
- Organism: Rattus norvegicus
- ASSAY PROCEDURE: Inhibition of rat recombinant Rab geranylgeranyltransferase at 100 uM in presence of canine Rab7 and rat REP1 NBD-FPP based continuous fluorimetric assay
Numbers only here, please. The scale is %.

Consider the reported inhibition for these compounds:
1) O=C(CCc1ccccc1)N[C@@H](CO)C(=O)N[C@@H](Cc1ccccc1)C(=O)N[C@@H](CO)C(=O)NC1CCCCC1 :: 90
2) O=C(N[C@@H](Cc1c[nH]cn1)C(=O)N[C@@H](Cc1ccc(O)cc1)C(=O)N[C@@H](Cc1ccccc1)C(=O)O)OCc1ccccc1OCc1ccccc1 :: 15
3) COc1ccc(C[C@@H](C(=O)N(C)[C@@H](Cc2ccccc2)C(=O)O)N(C)C(=O)[C@@H](Cc2ccc(O)cc2)NC(=O)CCc2ccccc2)cc1 :: 46
4) CCCCCCCCCCC(=O)N[C@@H](Cc1c[nH]cn1)C(=O)N[C@@H](Cc1cnc[nH]1)C(=O)N[C@@H](Cc1ccc(O)cc1)C(=O)OCCN :: 97
5) CCCCCCCCCC(=O)N[C@@H](Cc1c[nH]cn1)C(=O)N[C@@H](Cc1cnc[nH]1)C(=O)N[C@@H](Cc1ccc(O)cc1)C(=O)OCCN :: 29

Annotate the compound "CCCCCCCCCCCOc1ccc(C(=O)N[C@@H](Cc2ccc(O)cc2)C(=O)N[C@@H](Cc2ccc(O)cc2)C(=O)N[C@@H](Cc2ccc(O)cc2)C(=O)O)cc1" with its measured inhibition.
106

Annotate the compound "COC(=O)[C@H](Cc1cn(C(c2ccccc2)(c2ccccc2)c2ccccc2)cn1)NC(=O)[C@H](Cc1ccccc1)NC(=O)CNC(=O)c1csc(-c2cccs2)n1" with its measured inhibition.
69

Annotate the compound COC(=O)[C@H](CO)NC(=O)CNC(=O)[C@H](Cc1ccccc1)NC(=O)C1COC(c2ccccc2)=N1 (some centres undefined) with its measured inhibition.
136

Annotate the compound "C=CCCCCCCCCCOC(=O)[C@H](CCC(N)=O)NC(=O)[C@H](Cc1ccccc1)NC(=O)[C@H](CO)NC(=O)CCc1ccccc1" with its measured inhibition.
120

Annotate the compound "COC(=O)[C@H](CO)NC(=O)CNC(=O)[C@H](CO)NC(=O)/C=C/c1ccc(F)cc1" with its measured inhibition.
63

Annotate the compound "C[C@@H](NC(=O)CCc1ccccc1)C(=O)N[C@@H](Cc1ccccc1)C(=O)N[C@@H](CCC(N)=O)C(N)=O" with its measured inhibition.
95

###

- Species on record: Rattus norvegicus
- ASSAY PROCEDURE: Inhibition of rat recombinant Rab geranylgeranyltransferase at 100 uM in presence of canine Rab7 and rat REP1 NBD-FPP based continuous fluorimetric assay
VALUE KIND: inhibition (%)
Numbers only here, please. The scale is %.

1) CC(C)C[C@H](NC(=O)[C@H](CO)NC(=O)[C@H](Cc1ccccc1)NC(=O)/C=C/c1ccc(F)cc1)C(N)=O :: 98

Annotate the molecule "CCCCCCCCCCC(=O)N[C@@H](CC1=NCN=C1)C(=O)N[C@@H](Cc1c[nH]cn1)C(=O)N[C@@H](Cc1ccc(O)cc1)C(=O)Nc1ccccc1N" with its measured inhibition.
74

Annotate the molecule "CCCCOC(=O)[C@H](Cc1ccc(O)cc1)NC(=O)CNC(=O)[C@H](Cc1ccc(O)cc1)NC(=O)CCc1ccc(F)cc1" with its measured inhibition.
47

Annotate the molecule O=C(CNC(=O)C1CCCN1C(=O)/C=C/c1ccccc1)NC(Cc1ccccc1)C(=O)NCc1ccc(F)cc1F (configuration not stated) with its measured inhibition.
54

###

- Species: Rattus norvegicus
- ASSAY PROCEDURE: Inhibition of rat recombinant Rab geranylgeranyltransferase at 100 uM in presence of canine Rab7 and rat REP1 NBD-FPP based continuous fluorimetric assay
Peptide text beside a SMILES is read from it. * marks the point of attachment. Hydrocinnamoyl = O=C(CCc1ccccc1)*; Morpholide = C1CN(*)CCO1
VALUE KIND: inhibition (%)
Numbers only here, please. The scale is %.

Consider the reported inhibition for these compounds:
1. NC(=O)CC[C@H](NC(=O)[C@H](Cc1ccccc1)NC(=O)CNC(=O)CCc1ccccc1)C(=O)N1CCOCC1 (Hydrocinnamoyl-Gly-Phe-Gln-Morpholide) :: 89
2. CC[C@H](C)[C@H](NC(=O)c1ccc(-c2ccccc2)cc1)C(=O)N[C@@H](C(=O)N[C@@H](CCC(N)=O)C(=O)N1CCCCC1)C(C)C :: 100
3. CCCCCCCCCCCOc1ccc(C(=O)N[C@@H](Cc2ccc(O)cc2)C(=O)N[C@@H](Cc2ccc(O)cc2)C(=O)N[C@@H](Cc2ccc(O)cc2)C(=O)NCc2ccc(F)cc2F)cc1 :: 99
4. C[C@H](NC(=O)CCc1ccccc1)C(=O)N[C@@H](Cc1ccccc1)C(=O)N[C@@H](CCC(N)=O)C(=O)OCCCCO :: 44

Annotate the compound "NCCCC[C@H](NC(=O)CCc1ccccc1)C(=O)N[C@@H](Cc1c[nH]cn1)C(=O)N[C@@H](CO)C(=O)NC1CCCCC1" with its measured inhibition.
98

Annotate the compound "CN(CCc1ccccn1)C(=O)[C@H](Cc1ccc(O)cc1)NC(=O)CNC(=O)[C@H](Cc1c[nH]cn1)NC(=O)OCc1ccccc1" with its measured inhibition.
85

Annotate the compound "COC(=O)[C@H](CC(C)C)NC(=O)[C@H](CO)NC(=O)[C@H](Cc1ccccc1)NC(=O)CCc1ccccc1" with its measured inhibition.
69

Annotate the compound NC(=O)CC[C@H](NC(=O)[C@H](Cc1ccccc1)NC(=O)[C@H](CO)NC(=O)CCc1ccccc1)C(N)=O (Hydrocinnamoyl-Ser-Phe-Gln-NH2) with its measured inhibition.
106

Annotate the compound "CC(C)(C)Oc1ccc(C[C@H](NC(=O)CNC(=O)[C@H](CCCCN)NC(=O)c2coc(-c3ccccc3)n2)C(=O)O)cc1" with its measured inhibition.
93

Annotate the compound "CC(C)C[C@H](NC(=O)[C@H](CO)NC(=O)[C@H](Cc1ccccc1)NC(=O)c1ccc(-c2ccccc2)cc1)C(N)=O" with its measured inhibition.
110

Annotate the compound "CC(C)C[C@H](NC(=O)[C@H](COC(C)(C)C)NC(=O)[C@H](Cc1ccccc1)NC(=O)CCc1ccccc1)C(N)=O" with its measured inhibition.
96

Annotate the compound "CCCCCCCCCCC(=O)N[C@@H](Cc1c[nH]cn1)C(=O)N[C@@H](Cc1c[nH]cn1)C(=O)N[C@@H](CO)C(=O)NCCCCN" with its measured inhibition.
75

Annotate the compound "O=C(CCc1ccc(F)cc1)N[C@@H](Cc1ccc(O)cc1)C(=O)NCC(=O)N[C@@H](Cc1ccc(O)cc1)C(=O)Nc1ccccc1" with its measured inhibition.
99

Annotate the compound "CC(C)C[C@H](NC(=O)[C@H](CO)NC(=O)[C@H](Cc1ccccc1)NC(=O)/C=C/c1ccc(F)cc1)C(=O)O" with its measured inhibition.
71

Annotate the compound "CCCCCCCCCCCCCC(=O)OC[C@H](NC(=O)[C@H](Cc1ccccc1)NC(=O)[C@H](CCCCNC(=O)c1csc(-c2cccnc2)n1)NC(=O)c1csc(-c2cccnc2)n1)C(=O)O" with its measured inhibition.
67

Annotate the compound "CCCCCCCCCCC(=O)N[C@@H](Cc1c[nH]cn1)C(=O)N[C@@H](Cc1ccccc1)C(=O)N[C@@H](Cc1ccc(O)cc1)C(=O)NOC(C)(C)C" with its measured inhibition.
76

Annotate the compound "CC[C@H](C)[C@H](NC(=O)/C=C/c1ccc(F)cc1)C(=O)N[C@@H](C)C(=O)N[C@@H](CCC(N)=O)C(=O)O" with its measured inhibition.
83

Annotate the compound "O=C(CNC(=O)[C@@H]1CCCN1C(=O)c1coc(-c2ccccc2)n1)N[C@@H](Cc1ccc(O)cc1)C(=O)Nc1ccc(F)cc1F" with its measured inhibition.
89

Reference for the values: ChEMBL document CHEMBL1153722
